Experiment: Cmax of aliskiren hemifumarate following single dosing of SPP100B oral solution at 160 mg level studied on day 1 in men
Assay type: ADME, organism-based
Settings: male, human, plasma
QUANTITY: Cmax (ng/mL)

COMPOUND	UNIT OF MEASURE	OBS VALUE
COCCCOc1cc(C[C@@H](C[C@H](N)[C@@H](O)C[C@H](C(=O)NCC(C)(C)C(N)=O)C(C)C)C(C)C)ccc1OC.COCCCOc1cc(C[C@@H](C[C@H](N)[C@@H](O)C[C@H](C(=O)NCC(C)(C)C(N)=O)C(C)C)C(C)C)ccc1OC.O=C(O)/C=C/C(=O)O [ALISKIREN FUMARATE]	ng/mL	21.5

###

Assay: Apparent terminal elimination half-life (0-96h) of unlabeled aliskiren hemifumarate following intravenous administration of aliskiren hemifumarate at 10 mg.Kg-1 level in rat
Format: ADME, organism-based
Conditions: Albino HAN:WIST, plasma
QUANTITY: half-life (h)

COMPOUND	OBS VALUE
COCCCOc1cc(C[C@@H](C[C@H](N)[C@@H](O)C[C@H](C(=O)NCC(C)(C)C(N)=O)C(C)C)C(C)C)ccc1OC.COCCCOc1cc(C[C@@H](C[C@H](N)[C@@H](O)C[C@H](C(=O)NCC(C)(C)C(N)=O)C(C)C)C(C)C)ccc1OC.O=C(O)/C=C/C(=O)O [ALISKIREN FUMARATE]	23.1

###

Assay: Cmax (0-96h) of total radioactivity following oral administration of [14C] aliskiren hemifumarate at 100 mg.Kg-1 level in rat
Assay type: ADME, organism-based, Albino HAN:WIST, Plasma
Conditions: in vivo, iv, 10 mg/kg
QUANTITY: Cmax (µM)

> print(dat)
                                test.smiles  quantity  unit.of.measure  obs.value
1  COCCCOc1cc(C[C@@H](C[C@H](N)[C@@H](O)C[C@H](C(=O)NCC([14CH3])([14CH3])C(N)=O)C(C)C)C(C)C)ccc1OC.O=C(O)/C=C/C(=O)O      Cmax               µM       21.2

###

Target: UniProt P11712
Sequence (P11712 whole entry): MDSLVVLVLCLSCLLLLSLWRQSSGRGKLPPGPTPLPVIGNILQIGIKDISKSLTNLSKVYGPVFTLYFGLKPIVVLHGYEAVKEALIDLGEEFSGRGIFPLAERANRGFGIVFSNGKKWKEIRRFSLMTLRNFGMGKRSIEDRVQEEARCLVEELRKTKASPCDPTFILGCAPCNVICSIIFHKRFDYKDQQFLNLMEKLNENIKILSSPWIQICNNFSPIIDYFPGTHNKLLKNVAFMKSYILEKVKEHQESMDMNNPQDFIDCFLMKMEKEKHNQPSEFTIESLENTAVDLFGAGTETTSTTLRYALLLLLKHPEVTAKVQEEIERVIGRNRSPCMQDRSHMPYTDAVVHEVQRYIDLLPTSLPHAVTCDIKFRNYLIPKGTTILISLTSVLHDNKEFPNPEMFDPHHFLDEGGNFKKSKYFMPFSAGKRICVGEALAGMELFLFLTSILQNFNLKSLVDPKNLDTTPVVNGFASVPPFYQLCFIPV
Test: Inhibitory activity of 20 uM SPP100 on 258 Pmoles of cDNA-derived CYP2C9 enzyme in microsome prepared from human lymphoblastoid cell line
Assay type: ADME, microsomes
Design: conc 20 uM, interact cpd conc 6 uM
Conditions: probe diclofenac
QUANTITY: inhibition at 20 µM (%)

> print(dat)
                                test.smiles  unit.of.measure  obs.value
1  COCCCOc1cc(C[C@@H](C[C@H](N)[C@@H](O)C[C@H](C(=O)NCC(C)(C)C(N)=O)C(C)C)C(C)C)ccc1OC                %        1.3

###

Assay: AUC(0-24h) of aliskiren hemifumarate following 2 week oral dosing of aliskiren hemifumarate at 50 mg.Kg-1 level studied on day 14 in male Callithrix jacchus
Type: ADME, organism-based
Settings: marmoset, plasma
QUANTITY: AUC at 24 h

COMPOUND	OBS VALUE
COCCCOc1cc(C[C@@H](C[C@H](N)[C@@H](O)C[C@H](C(=O)NCC(C)(C)C(N)=O)C(C)C)C(C)C)ccc1OC.COCCCOc1cc(C[C@@H](C[C@H](N)[C@@H](O)C[C@H](C(=O)NCC(C)(C)C(N)=O)C(C)C)C(C)C)ccc1OC.O=C(O)/C=C/C(=O)O [ALISKIREN FUMARATE]	107 µg·h/mL
